target: HiBit-BRG1 fusion protein (Homo sapiens); construct: expressed in transfected cells; experiment: HiBiT-BRG1 cell-based degradation assay (Nano-Glo HiBiT Lytic Detection, 24 h); details: HeLa cells expressing HiBit-BRG1 and LgBit, read-out: BRG1 HiBit Degradation IC50
DC50 reference

1. CS(=O)(=O)n1ccc(C(=O)N[C@@H](CCCCNC(=O)C2CCN(CCOc3ccc4c(c3)C(=O)N(C3CCC(=O)NC3=O)C4=O)CC2)C(=O)Nc2nc(-c3ccccc3)cs2)c1 (stereo partly drawn) : > 10 µM

Output DC50 of CS(=O)(=O)n1ccc(C(=O)NCC(=O)Nc2nc(-c3cccc(-c4ccnc(OCCNC(=O)CCOCCOCCOc5ccc6c(c5)C(=O)N(C5CCC(=O)NC5=O)C6=O)c4)c3)cs2)c1 (stereo not drawn)
0.1 to 1 µM

Please supply the value of reported DC50 for the item CS(=O)(=O)n1ccc(C(=O)N[C@@H](COCc2ccc(C(=O)N3CCC4(CC3)CC(Oc3ccc5c(c3)C(=O)N(C3CCC(=O)NC3=O)C5=O)C4)cc2)C(=O)Nc2nc(-c3ccccc3)cs2)c1 (stereo partly drawn)
> 10 µM

* * *

biological target: HiBit-BRG1 fusion protein (Homo sapiens, UniProt P51532); construct: expressed in transfected cells; experiment: HiBiT-BRG1 cell-based degradation assay (Nano-Glo HiBiT Lytic Detection, 24 h); details: HeLa cells expressing HiBit-BRG1 and LgBit, read-out: BRG1 HiBit Degradation IC50
Sequence (P51532 whole entry, the tested form may be a part): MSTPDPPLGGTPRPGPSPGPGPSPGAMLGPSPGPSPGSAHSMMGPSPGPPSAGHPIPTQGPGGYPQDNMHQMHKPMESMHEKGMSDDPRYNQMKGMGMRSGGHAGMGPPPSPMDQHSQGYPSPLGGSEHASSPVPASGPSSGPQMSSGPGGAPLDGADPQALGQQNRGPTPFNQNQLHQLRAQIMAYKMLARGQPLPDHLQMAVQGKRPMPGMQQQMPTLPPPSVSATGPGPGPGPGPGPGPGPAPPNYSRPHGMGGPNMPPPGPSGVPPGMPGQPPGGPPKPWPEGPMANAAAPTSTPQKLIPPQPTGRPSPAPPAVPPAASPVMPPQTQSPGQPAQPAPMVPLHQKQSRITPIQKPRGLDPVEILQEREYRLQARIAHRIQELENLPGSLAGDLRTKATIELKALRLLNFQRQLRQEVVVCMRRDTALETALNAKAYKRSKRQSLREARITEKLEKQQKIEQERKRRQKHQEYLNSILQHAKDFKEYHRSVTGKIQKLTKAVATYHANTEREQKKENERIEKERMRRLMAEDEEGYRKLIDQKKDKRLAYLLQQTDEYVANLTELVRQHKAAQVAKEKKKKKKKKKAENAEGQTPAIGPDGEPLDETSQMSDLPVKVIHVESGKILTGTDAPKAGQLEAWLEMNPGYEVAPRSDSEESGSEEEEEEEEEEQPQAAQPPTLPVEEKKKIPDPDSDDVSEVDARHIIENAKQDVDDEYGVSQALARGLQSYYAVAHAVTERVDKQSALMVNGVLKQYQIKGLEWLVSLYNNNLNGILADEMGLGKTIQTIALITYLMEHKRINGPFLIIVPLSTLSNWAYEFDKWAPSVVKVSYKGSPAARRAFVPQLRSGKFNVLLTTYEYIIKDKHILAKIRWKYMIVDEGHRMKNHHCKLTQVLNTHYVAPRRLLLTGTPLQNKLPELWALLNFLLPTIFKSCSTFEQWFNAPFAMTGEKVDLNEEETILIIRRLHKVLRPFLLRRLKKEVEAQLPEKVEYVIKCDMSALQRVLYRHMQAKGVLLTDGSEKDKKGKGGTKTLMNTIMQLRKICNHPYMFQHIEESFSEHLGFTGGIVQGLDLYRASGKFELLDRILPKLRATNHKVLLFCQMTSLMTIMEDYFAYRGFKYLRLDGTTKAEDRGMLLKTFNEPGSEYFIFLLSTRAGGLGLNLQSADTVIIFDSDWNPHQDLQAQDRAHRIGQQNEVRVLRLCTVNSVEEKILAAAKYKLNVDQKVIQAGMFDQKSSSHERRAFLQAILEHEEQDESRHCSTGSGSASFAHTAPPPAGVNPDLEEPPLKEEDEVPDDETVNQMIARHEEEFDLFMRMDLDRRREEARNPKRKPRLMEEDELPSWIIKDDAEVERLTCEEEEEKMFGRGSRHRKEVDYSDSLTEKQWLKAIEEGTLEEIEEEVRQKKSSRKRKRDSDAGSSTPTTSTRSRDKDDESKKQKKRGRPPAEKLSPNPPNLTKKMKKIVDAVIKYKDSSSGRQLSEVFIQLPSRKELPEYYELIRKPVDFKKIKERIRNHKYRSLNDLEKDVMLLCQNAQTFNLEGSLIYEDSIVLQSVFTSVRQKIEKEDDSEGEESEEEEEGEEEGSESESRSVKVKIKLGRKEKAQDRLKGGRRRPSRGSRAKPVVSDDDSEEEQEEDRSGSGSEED
quantityName: DC50

The following compounds have reported results that may help.
1. CS(=O)(=O)n1ccc(C(=O)N[C@@H](COCc2ccc(C(=O)NCCCCCNc3ccc4c(c3)C(=O)N(C3CCC(=O)NC3=O)C4=O)cc2)C(=O)Nc2nc(-c3ccccc3)cs2)c1 (stereo partly drawn) : 100 to 1000 nM
2. CS(=O)(=O)n1ccc(C(=O)N[C@@H](CCCCNC(=O)CCCCCCCOc2cccc3c2C(=O)N(C2CCC(=O)NC2=O)C3=O)C(=O)Nc2nc(-c3ccccc3)cs2)c1 (stereo partly drawn) : > 10000 nM

Would you kindly look at the next entry?
Indicate its recorded DC50; the compound in question is CS(=O)(=O)n1ccc(C(=O)NCC(=O)Nc2nc(-c3cccc(-c4ccnc(C5(C(=O)NCCCCNc6ccc7c(c6)C(=O)N(C6CCC(=O)NC6=O)C7=O)CC5)c4)c3)cs2)c1 (stereo not drawn)
< 100 nM

* * *

target: HiBit-BRG1 fusion protein (Homo sapiens, UniProt P51532); construct: expressed in transfected cells; assay: HiBiT-BRG1 cell-based degradation assay (Nano-Glo HiBiT Lytic Detection, 24 h); conditions: HeLa, HeLa cells expressing HiBit-BRG1 and LgBit, top dose 30 μM, read-out: BRG1 HiBit Degradation Maximum measured
// reported Dmax per item

Known results for compounds:
1. Cc1ncsc1-c1ccc(CNC(=O)[C@@H]2C[C@@H](O)CN2C(=O)[C@@H](NC(=O)COCCOCCNC(=O)c2ccc(COC[C@H](NC(=O)c3ccn(S(C)(=O)=O)c3)C(=O)Nc3nc(-c4ccccc4)cs3)cc2)C(C)(C)C)cc1 : 50 to 75%
2. CS(=O)(=O)n1ccc(C(=O)N[C@@H](COCc2ccc(C(=O)N3CC(CN4CCN(c5ccc6c(c5)C(=O)N(C5CCC(=O)NC5=O)C6=O)CC4)C3)cc2)C(=O)Nc2nc(-c3ccccc3)cs2)c1 (some centres unmarked) : > 75%
3. CS(=O)(=O)n1ccc(C(=O)N[C@@H](COCc2ccc(CNC(=O)CCCCCCCCCCNc3cccc4c3C(=O)N(C3CCC(=O)NC3=O)C4=O)cc2)C(=O)Nc2nc(-c3ccccc3)cs2)c1 (some centres unmarked) : 50 to 75%
4. CS(=O)(=O)n1ccc(C(=O)NCC(=O)Nc2nc(-c3cccc(-c4cccc(CNC(=O)CCCCCCCOc5cccc6c5C(=O)N(C5CCC(=O)NC5=O)C6=O)c4)c3)cs2)c1 (centres unmarked) : < 50%

Please turn your attention to the following entry.
Please respond with reported Dmax (system HiBit-BRG1 fusion protein (Homo sapiens, UniProt P51532)) for CN(CC(=O)N1CCC(C2CCN(C(=O)COc3cccc4c3C(=O)N(C3CCC(=O)NC3=O)C4=O)CC2)CC1)c1cc(-c2cccc(-c3csc(NC(=O)CNC(=O)c4ccn(S(C)(=O)=O)c4)n3)c2)ccn1 (centres unmarked) .
< 50%
